TARGET_UNDER_TEST: T1, Human wild type CIB1 (calcium and integrin binding protein 1) (human, UniProt Q99828 1-191)
T1 sequence (looked up): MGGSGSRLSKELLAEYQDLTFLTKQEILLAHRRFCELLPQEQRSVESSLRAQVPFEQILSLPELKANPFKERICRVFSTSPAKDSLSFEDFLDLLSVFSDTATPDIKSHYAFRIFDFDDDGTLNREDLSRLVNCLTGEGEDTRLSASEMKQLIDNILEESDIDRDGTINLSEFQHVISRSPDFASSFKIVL
EXPERIMENT_NOTES: ITC
Please respond with reported stoichiometry N for every item in the list.
// return just the number, without any unit appended

## Task Give the value of stoichiometry N reported for the following: integrin αL cytoplasmic tail (CT) peptide (peptide) IFIVLYKVGFFKRNLKEKMEAGRGVPNGIPAEDSEQLASGQEAGDPGCLKPLHEKDSESGGGKD
## Result 1.1

## Task Give the value of stoichiometry N reported for the following: IILLLWKCGFFKRARTRALYEAKRQKAEMKSQPSETERLTDDY [integrin α3 cytoplasmic tail (CT) peptide]
## Result 1

## Task Give the value of stoichiometry N reported for the following: LIYILYKLGFFKRSLPYGTAMEKAQLKPPATSDA [integrin α5 cytoplasmic tail (CT) peptide]
## Result 0.9

## Task Give the value of stoichiometry N reported for the following: LVFVMYRMGFFKRVRPPQEEQEREQLQPHENGEGNSET [integrin αV cytoplasmic tail (CT) peptide, wild type]
## Result 0.9
